Data origin, for the record: ChEMBL document CHEMBL1132813

# Tested on: P388
# test_name: The compound was evaluated for its cytotoxic potency against P388 cell line
# Format: functional, cell-based
# condition_set: Mus musculus
readout: IC50 (nM)
# number only, unit nM dropped from output

Example entries and their recorded answers appear below.
>>> experimental_value("COc1cc(/C=C/c2ccc3ccccc3c2)cc(OC)c1OC")
398
>>> experimental_value("COc1ccc(/C=C\\c2ccc3ccccc3c2)cc1O")
39.8

We now examine a further compound.
Ask: State its IC50 on P388: `C(=C/c1ccc2ccccc2c1)/c1ccc2ccccc2c1`
Reply: 3980
